This collection of values is drawn from patent US11596639B2.

- target-or-system: UniProt:Q07820
- Sequence (Q07820 172-327): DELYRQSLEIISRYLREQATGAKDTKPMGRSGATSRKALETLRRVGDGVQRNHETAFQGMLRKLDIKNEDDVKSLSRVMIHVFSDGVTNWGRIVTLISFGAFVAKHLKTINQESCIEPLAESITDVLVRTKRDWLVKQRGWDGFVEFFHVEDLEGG
- measurement-description: Fluorescence polarization anisotropy (FPA) competition assay, FITC-Bak or FITC-Bim BH3 peptide
- Format: binding
- measurement-context: read-out: Ki for Inhibition of Mcl-1 by FPA assay
property: Ki

                                   compound  result
0  Cc1cc(OCCCc2c3n(c4c(-c5c(C)nn(C)c5C)c(Cl)ccc24)[C@H](C)CN(c2cccc4c2c(C(=O)O)nn4C)C3=O)cc(C)c1Cl [Example 127]  < 1 nM
1  Cc1cc(OCCCc2c3n(c4c(-c5c(C)nn(C)c5C)c(Cl)ccc24)CCCN(c2cc(C(=O)O)c4c(Br)cn(C)c4c2)C3=O)cc(C)c1Cl  < 1 nM
2  Cc1cc(OCCCc2c3n(c4c(-c5c(C)nn(C)c5C)c(Cl)ccc24)[C@H](C)CN(c2nc4cc(C(=O)O)ccn4n2)C3=O)cc(C)c1Cl  < 1 nM
